# assay_summary: NCI Yeast Anticancer Drug Screen. Data for the cln2 rad14 strain (AID 165)
# conditions_used: S. cerevisiae cln2 rad14 strain, at 50.0 µM, active compounds read high
Compounds without any hit were thinned out: in the full panel of roughly 79,000, 15% have a hit.
Would you mind labelling by growth inhibition? At or over -20% is Met, under is Not met.

Known results for compounds:
compound=CC(C)(C)NC(=O)NCCCl cat="Not met"
compound=C=C(C)CN(Cc1ccccc1)C1CCCCCCC1 cat=Met
compound="COC(=O)C(Cc1nc2ccccc2[nH]c1=O)/C(=N\\NC(C)(C)C)C(=O)Nc1c(C)cc(Br)cc1C (configuration not stated)" cat="Not met"
compound=CCOc1ncnc2ccc(Cl)c(I)c12 cat=Met
compound=Cc1cccc(N/N=C2\CCSc3ccccc32)c1 cat=Met

stdin: Does "Cc1cc(=O)[nH]c2c(C)cc(Cl)cc12" have a reported growth inhibition of at least -20%?
stdout: Met
